Cited source for all entries: patent US20250042994A1

// reported EC50 (read off the curve) for each item listed
Target: T1, Human CD19-his protein (human, UniProt P15391 20-291)
T1 construct: bought protein; also called recombinant human CD19-His; CD19 full-length protein; not shown: His tag
T1 sequence (looked up): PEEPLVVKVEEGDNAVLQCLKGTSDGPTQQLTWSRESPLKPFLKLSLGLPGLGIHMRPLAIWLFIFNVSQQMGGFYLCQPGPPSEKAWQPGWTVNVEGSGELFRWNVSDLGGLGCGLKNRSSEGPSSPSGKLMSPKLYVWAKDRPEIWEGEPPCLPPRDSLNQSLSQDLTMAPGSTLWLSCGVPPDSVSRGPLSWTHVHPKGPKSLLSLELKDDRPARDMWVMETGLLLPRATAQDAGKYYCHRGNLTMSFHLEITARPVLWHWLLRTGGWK
Assay: ELISA on coated human CD19-His

{"columns": ["binder", "EC50 (read off the curve)"],
 "data": [
  ["F3.121.4-L2H2 (antibody, mouse IgG1, kappa, V domains shown, humanized antibody of F3.121.4, VL2+VH2, murine IgG1 constant regions) VH: EVQLVQSGAEVKKPGASVKVSCKASGYTFTNYWMHWVRQAPGQGLEWMGEIDPSDNYANYNQEFQGRVTITVDKSASTAYMELSSLRSEDTAVYYCARHDGYFGALDYWGQGTTVTVSS VL: EIVLTQSPDFQSVTPKEKVTITCSASSSISSNYLHWYQQKPDQSPKLLIKRTSNLASGVPSRFSGSGSGTDFTLTINSLEAEDAATYYCQQASSIPRMFTFGQGTKLEIKR", "~50 pM"],
  ["F3.121.4-L2H1 (antibody, mouse IgG1, kappa, V domains shown, humanized antibody of F3.121.4, VL2+VH1, murine IgG1 constant regions) VH: EVQLVQSGAEVKKPGASVKVSCKASGYTFTNYWMHWVRQAPGQRLEWMGEIDPSDNYANYNQEFQGRVTITVDKSASTAYMELSSLRSEDTAVYYCARHDGYFGALDYWGQGTTVTVSS VL: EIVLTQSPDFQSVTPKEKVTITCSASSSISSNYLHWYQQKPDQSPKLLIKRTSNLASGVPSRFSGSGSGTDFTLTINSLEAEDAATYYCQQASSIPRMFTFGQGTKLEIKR", "~50 pM"],
  ["F3.121.4-L1H1 (antibody, mouse IgG1, kappa, V domains shown, humanized antibody of F3.121.4, VL1+VH1, murine IgG1 constant regions) VH: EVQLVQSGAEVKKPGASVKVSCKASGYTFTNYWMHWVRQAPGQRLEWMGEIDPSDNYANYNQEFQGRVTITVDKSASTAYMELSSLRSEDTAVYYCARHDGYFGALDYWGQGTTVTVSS VL: EIVLTQSPATLSLSPGERATLSCSASSSISSNYLHWYQQKPGQAPRFLIYRTSNLASGIPARFSGSGSGTDFTLTISSLEPEDFAVYYCQQASSIPRMFTFGQGTKLEIKR", "~50 pM"]
]}
